Where do these numbers come from? They come from the supplement of paper PMC7125110.

B1: glmS ribozyme (parent)
chain: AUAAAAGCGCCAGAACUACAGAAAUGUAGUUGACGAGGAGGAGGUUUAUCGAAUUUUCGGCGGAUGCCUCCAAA

Variants of: B1
Test Name: self-cleavage kobs at 640 uM GlcN6P; higher = faster cleavage; RNA array
Assay Conditions: with glucosamine-6-phosphate
Variants at the floor of the assay were thinned out.
Property Name: self-cleavage kobs at 640 uM GlcN6P

Hi, could you look up self-cleavage kobs at 640 uM GlcN6P for each item in my list?
1. AUAAAAGCGCCAGAACUACAGAAAUGUAGUUGACGAGGAGGAGGUUUAUCGAAUUUUCGGCGGAAGCCUUCAAA [U65A C70U]
2. AUAAAAGCCCCAGAACUACAGAAAUGUAGUUGACGAGGAGGAGGUUUGUCGAAUUUUCGGCGGAUGCCUCCAAA [G9C A48G]
3. AUAAAAGCGCCAGAACUACAGAAAUGUAGUUGACGUGAAGGAGGUUUAUCGUAUUUUCGGCGGAUGGCUCCAAA [A36U G38A A52U C67G]
4. AUAAAAGCGCCAGGACUACAGAAAUGUAGUUGACGAGGAGGAGGUUUAUCGAGUUUUCGGCGGAUGCCUCCAAA [A14G A53G]
5. AUAAAAGCGCCAGAUCUACAGAAAUGUAGUUGACGAGGAGGAGGUUUAUCGAAUUUGUGGCGGAUGCCUACAAA [A15U U57G C58U C70A]
6. AUAAAAGCGCCAGAUCUACAGAAAUGUAGUUGGCGAGGAGGAGUUUUUUCGAAUUUUCGGCGGAUGCCUCCAAA [A15U A33G G44U A48U]
7. AUAAAAGCGCCAGAACUACAGAAAUGUAGUUGACGAGGAGGAGGUUUAUUGAAUUUUCGGCGGAUGCCUUCAAA [C50U C70U]

Key:
0.000871 s⁻¹
< 1e-05 s⁻¹
4.67e-05 s⁻¹
0.0226 s⁻¹
9.48e-05 s⁻¹
< 1e-05 s⁻¹
3.85e-05 s⁻¹

Hi, could you look up self-cleavage kobs at 640 uM GlcN6P for each item in my list?
1. AUAAAAGCGCCAGAACUACAGAAAUGUAGUGGACGAGGAGAAGGUUUAUCGAAUUUUCGGCGGAUGCCUCCAAA [U31G G41A]
2. AUAAAAGCGCCAGAACUACAGAAAUGUAGUCGACGAGUAGUAGGUUUAUCGAAUUUUCGGCGCAUGCCUCCAAA [U31C G38U G41U G63C]

Key:
1: 0.000224 s⁻¹; 2: < 1e-05 s⁻¹

Hi, could you look up self-cleavage kobs at 640 uM GlcN6P for each item in my list?
1. AUAAAAGCGCCAGAACUACAGAAAUGUAGUUGACGAGGAGGAAGUUUGUCGAUUUUUCGGCCGAUGCCUCCAAA [G43A A48G A53U G62C]
2. AUAAAAGCGCCAGAAGUACAGAAAUGUAGUUGACGAGGAGGAGGAUUAUCGAAUUUUAGGCGGAUGCCUCCAAA [C16G U45A C58A]
3. AUAAAAGCGCCAGAACUACAGAAAUGUAGUUGACGAGGAGGAGGUGUAUCGAAUUUUCUGCGGAUGCCUCCAAA [U46G G59U]
4. AUAAAAGCGCCAGAACUACAGAAAUGUAGUUGAAGAGGAGGAGGCUUAUCGAAUUUUCGGCGGAUGCCUCCAAA [C34A U45C]
5. AUAAAAGCGCCUGAACUACAGAAAUGUAGUUGACGAGGAGGAGGUUUAUUGAAUUUUCUGCGGAUGCCUCCAAA [A12U C50U G59U]

Key:
< 1e-05 s⁻¹
6.95e-05 s⁻¹
< 1e-05 s⁻¹
< 1e-05 s⁻¹
< 1e-05 s⁻¹
